ASSAYED TARGET: T1, 15-mer peptide LGIWGCSGKLICTTT (SEQ ID NO:1) (HIV, not fully specified; cysteine pairing not given here)
T1 construct: also called U1731DB060-1; U173DB060-1
T1 peptide: LGIWGCSGKLICTTT
TEST DESCRIPTION: indirect ELISA; 15-mer peptide coated 1 ug/ml in DTT; antibody at 333 ng/ml
No end group written: not given here.
Mark 0 for ELISA OD values under 0.08 OD, and 1 for everything at or above.

Below, 3 binders whose answers are already recorded.
# BINDER, CLASS
measured = [
    ("HIV-binding peptide #3 (antibody, human IgG1, kappa, V domains shown, Recombinant, fully human immunoglobulin; also called U1205DB020-3) VH: QVQLQESGGGVVQPGRSLRLSCAASGFTFSSYAIHWVRQAPGKGLEWVAVISYDGSNRYYADSVKGRFTISRDNSKNTLYLQMNSLRPEDTAVYYCARDRFSAVASTPTYHNYFYMDVWGKGTTVTVSS VL: DIQMTQSPSSLSASVGDRVTITCQASQDVNNYLAWYQQKPGQAPRLLIYDASNLETGVPSRFSGSGSGTDFTLTISSLQPEDLATYYCQQYDNLPYTFGQGTKLEIKR", 0),
    ("HIV-binding peptide #10Q (antibody, V domains shown, also called antibody#10-5Q; U1205DB020-10) VH: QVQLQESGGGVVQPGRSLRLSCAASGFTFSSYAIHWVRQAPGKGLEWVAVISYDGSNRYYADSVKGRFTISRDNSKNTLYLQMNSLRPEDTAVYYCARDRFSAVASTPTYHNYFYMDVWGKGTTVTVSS", 1),
    ("HIV-binding peptide #2 (antibody, human IgG1, kappa, V domains shown, Recombinant, fully human immunoglobulin; also called U1205DB020-2) VH: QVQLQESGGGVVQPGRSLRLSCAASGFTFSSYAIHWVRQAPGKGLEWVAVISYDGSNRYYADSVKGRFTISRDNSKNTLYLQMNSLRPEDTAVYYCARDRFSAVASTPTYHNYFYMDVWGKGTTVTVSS VL: DIQMTQSPSSLSASVGDRVTITCQASQDINNYLAWYQQKPGQAPRLLIYDASNLETGVPSRFSGSGSGTDFTLTISSLQPEDLATYYCQQYDNTPYTFGQGTKLEIKR", 0),
]

Continue with the binder presented below.
Task: Quick check, ELISA OD >= 0.08 OD? HIV-binding peptide #9Q (antibody, human IgG1, V domains shown) VH: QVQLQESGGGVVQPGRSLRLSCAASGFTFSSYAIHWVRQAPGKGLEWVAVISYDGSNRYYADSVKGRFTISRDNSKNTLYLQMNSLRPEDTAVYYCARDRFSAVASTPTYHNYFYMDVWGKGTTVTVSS
Output: 1
